Origin of measurements: PubChem BioAssay (NCI)

- Tested on: HT29 colon
- assay procedure: NCI-60 one-dose screen, 48 h
- experimental context: 10 µM unless noted
About 83,000 compounds went through this panel and 20% of them were active in at least one assay; those are over-represented in the sample as a whole. Active and inactive are the calls of the source. Rule for the calls: active = growth percent below 10; inactive = the rest.
Returns: one label drawn from true (1) (active), false (0) (inactive)

C#CCOC(=O)C(N)CSSCC(N)C(=O)O (centres undefined)	false (0)

Task item: Outcome? CCOC(=O)C1=C(c2ccccc2)N=C2SC=C(c3cccc([N+](=O)[O-])c3)N2C1c1ccc(O)cc1 (centres undefined)
Reply: false (0)

Task item: Identify the outcome logged in this assay for the compound shown: `COc1ccc(NC(=O)c2sc3nc(C)c(C(=O)c4ccccc4)cc3c2N)cc1`
Reply: false (0)

Task item: Would you mind telling me which call this test gave C#Cc1c(I)n(C2OC(CO[Si](C)(C)C(C)(C)C)C3OC(C)(C)OC32)c(=O)[nH]c1=O (centres undefined) ?
Reply: false (0)

Task item: Call for entry `COc1cc(C)cc(-c2c(-c3cc(N4CC(O)C4)nc(-c4cccnc4)n3)cnn2C)c1` :
Reply: false (0)

Task item: // return assay outcome for `Clc1ccc(C2=Nn3c(nnc3-c3cc(Cl)cc(Cl)c3Cl)SC2)cc1`
Reply: true (1)

Task item: Look up the recorded call for `CCN1CCN(C(=O)[C@]23CC[C@@H](C)[C@H](C)[C@@H]2C2=CC[C@@H]4[C@@]5(C)C/C(=C/c6ccncc6)C(=O)C(C)(C)[C@@H]5CC[C@@]4(C)[C@]2(C)CC3)CC1` in this test.
Reply: true (1)

Task item: What was the test verdict on `CC(C)(C)n1cc(-c2ccnc(NCCNS(=O)(=O)c3ccc(C(F)(F)F)cc3)c2)c(-c2ccccc2)n1` ?
Reply: false (0)

Task item: Given `CCCCC1=C(Br)C(=O)c2ncccc2C1=O` , state the outcome it received in this test.
Reply: false (0)

###

- Test system: SW-620 colon
- assay procedure: NCI-60 one-dose screen, 48 h
- experimental context: 10 µM unless noted
This is part of a sample that, as a whole, favours compounds with a hit. Of some 83,000 tested, about 20% had one in any assay. The source made the active and inactive calls. Rule for the calls: active = growth percent below 10; inactive = the rest.
In this exercise, the only acceptable responses are True for active, False for inactive

Example entries and their recorded answers appear below.
Cc1c2cnccc2c(C)c2c1c1cc(C(=O)O)ccc1n2C	True
COC(=O)c1nc(-c2ccccc2)oc1S(=O)(=O)NCC(c1ccc(Cl)cc1)N1CCCCC1 (stereo not drawn)	False
COc1ccc(S(=O)(=O)NC2c3ccccc3CC2O)cc1OC (stereo not drawn)	False
CC(=O)/C(Br)=C/c1ccc(Br)o1	False

Could you now look at the following compound, please?
Task item: Which outcome was entered for the compound `O=C(CN1C(=O)c2ccccc2S1(=O)=O)Nc1nc(-c2cc3ccccc3oc2=O)cs1` in this test?
Reply: False

###

// growth lookup, one value per entry
- System: SF-268 CNS
- assay procedure: NCI-60 one-dose screen, 48 h (100 = growth as untreated, 0 = no growth, -100 = all killed)
- experimental context: 10 µM unless noted
This is part of a sample that, as a whole, favours compounds with a hit. Of some 83,000 tested, about 20% had one in any assay.
// note: answer is a bare numeric in %

Below are worked cases with known answers.
CCCCCCC/C=N/NC(=O)c1ccc(-n2cc(-c3ccccc3)nn2)cc1	90.1
COc1cccc(NC(=O)c2sc3nc(C)c(C(=O)c4ccccc4)cc3c2N)c1	87.6
FC(F)(F)c1cccc(-c2nnn(Cc3cc(-c4cccc(Cl)c4)no3)n2)c1	99.1
CO[C@]12C=C/C(=C(/C(=O)OCc3cccnc3)C(=O)CCCCCCCC[C@]3(OC)C=C/C(=C(/C(=O)OCc4cccnc4)C(=O)CCCCCCCC1)O3)O2	-72.1
Cn1ccnc1C(=O)/C=C/c1ccc(CC(=O)Nc2cc(F)c(F)c(F)c2)cc1	15.5

Task item: Report value: growth, system: SF-268 CNS, compound: `Cc1cccc(C)c1NC(=O)Nc1ccccc1`
Reply: 96.1

Task item: Give growth for `COc1cccc(C(=O)Nc2cccc(NC(=O)c3ccccn3)c2)c1` tested on SF-268 CNS.
Reply: 96.9
